Biological target: Histone-lysine N-methyltransferase EHMT2 (Homo sapiens)
Assay: qHTS Assay for Inhibitors of Histone Lysine Methyltransferase G9a; further: nearly all actives have a fitted effect of over 75% in size
Settings: G9a H3K9 monomethylation, AlphaScreen, 2 h; series mostly up to 59 µM
The whole screen tested about 350,000 compounds, of which about 31,000 (8.9%) were called active. Inconclusive results (about 15%) are left out. The call rests on the fitted dose curve; in most records, active means well fitted inhibition curve with a large enough effect; inconclusive means small, poorly fitted or top-dose-only effect; inactive means no such curve, though single readings can be large or run the other way. For the sample, actives were picked, then their nearest neighbours and some compounds at random.
Pick one: Yes = active, No = inactive

Past entries and their recorded results:
| STRUCTURE STRING | CLASS NAME |
| --- | --- |
| O=C(CN1CCN(c2ccc(O)cc2)CC1)Nc1cc(S(=O)(=O)N2CCOCC2)ccc1Cl | Yes |
| CCOc1ccc(C(=O)COC(=O)c2ccc(-n3cnnn3)cc2)cc1 | No |
| Clc1ccc(C2=CSC3=Nc4cccc5cccc(c45)N23)cc1 | Yes |
| O=C(CN1CCOCC1)Nc1cc(Cl)ccc1Cl | No |
| CCc1ccccc1NC(=O)Cc1ccc(NC(=O)N2CCCCc3ccccc32)cc1 | No |

Next compound, please.
Short answer needed: outcome of this test for `CCOC(=O)c1c(-n2cnnn2)sc(C)c1C` ?
Yes

----------
Target: Histone-lysine N-methyltransferase EHMT2 (Homo sapiens) (UniProt Q96KQ7)
Sequence (Q96KQ7 913-1193 limits assumed): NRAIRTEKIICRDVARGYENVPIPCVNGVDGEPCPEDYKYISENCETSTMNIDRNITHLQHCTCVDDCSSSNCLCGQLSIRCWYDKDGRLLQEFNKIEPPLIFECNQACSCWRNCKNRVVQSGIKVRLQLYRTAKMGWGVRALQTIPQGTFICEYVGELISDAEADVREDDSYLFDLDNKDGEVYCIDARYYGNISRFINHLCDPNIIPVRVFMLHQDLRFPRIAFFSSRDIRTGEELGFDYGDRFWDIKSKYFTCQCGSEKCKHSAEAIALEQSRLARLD
Experiment: qHTS Assay for Inhibitors of Histone Lysine Methyltransferase G9a; further: nearly all actives have a fitted effect of over 75% in size
Settings: G9a H3K9 monomethylation, AlphaScreen, 2 h; series mostly up to 59 µM
Screen size: about 350,000 compounds; about 31,000 (8.9%) were called active. Not shown: some 15% with an inconclusive outcome. The call rests on the fitted dose curve; in most records, active means well fitted inhibition curve with a large enough effect; inconclusive means small, poorly fitted or top-dose-only effect; inactive means no such curve, though single readings can be large or run the other way. This is one part of a sample in which actives are shown more often than they occur.
A correct response names exactly one class from TRUE for active, FALSE for inactive

Examples with answers:
| COMPOUND | MEASUREMENT TARGET | CLASS NAME |
| --- | --- | --- |
| COc1ccc(CCNC(=O)C(=O)NCC(c2ccco2)S(=O)(=O)c2cccs2)cc1OC (stereo not given) | Histone-lysine N-methyltransferase EHMT2 (Homo sapiens) (UniProt Q96KQ7) | FALSE |
| O=C(CSc1nncs1)NC1CCCc2ccccc21 (stereo not given) | Histone-lysine N-methyltransferase EHMT2 (Homo sapiens) (UniProt Q96KQ7) | FALSE |
| COCCNS(=O)(=O)c1cc(-c2nn3c(C)nnc3c3ccccc23)ccc1C | Histone-lysine N-methyltransferase EHMT2 (Homo sapiens) (UniProt Q96KQ7) | FALSE |
| CC(=O)Nc1cccc(C(=O)OCC(=O)c2ccc3c(c2)OCO3)c1 | Histone-lysine N-methyltransferase EHMT2 (Homo sapiens) (UniProt Q96KQ7) | FALSE |
| CC(=O)c1c(C)[nH]c(C(=O)COC(=O)CCOc2ccc(C)cc2)c1C | Histone-lysine N-methyltransferase EHMT2 (Homo sapiens) (UniProt Q96KQ7) | FALSE |

Tell me the assay call for Cc1ccc(S(=O)(=O)N2CCN(C(=O)CCC(=O)NC3CCCc4ccccc43)CC2)cc1 (stereo not given) please.
FALSE

Tell me the recorded outcome of this test for `CCN1C(=O)c2cccc3c(N)ccc1c23` .
TRUE

----------
Target: Histone-lysine N-methyltransferase EHMT2 (Homo sapiens) (UniProt Q96KQ7)
Assay: qHTS Assay for Inhibitors of Histone Lysine Methyltransferase G9a; further: nearly all actives have a fitted effect of over 75% in size
Conditions: G9a H3K9 monomethylation, AlphaScreen, 2 h; series mostly up to 59 µM
Out of some 350,000 compounds screened, about 31,000 (8.9%) were called active. Not shown: some 15% with an inconclusive outcome. Calls follow the shape of the dose curve; as a rule, active = well fitted inhibition curve with a large enough effect; inconclusive = small, poorly fitted or top-dose-only effect; inactive = no such curve, though single readings can be large or run the other way. For the sample, actives were picked, then their nearest neighbours and some compounds at random.
Parameter call: string, one of TRUE for active, FALSE for inactive

Could you please tell me the result logged for CC(C)c1nnc(NC(=O)C2CC(=O)N(CCc3ccc(F)cc3)C2)s1 (configuration not stated) in this assay?
FALSE

Write down the call the test reported for this compound. Item: CC(C)C[C@H](NC(=O)C1CC(=O)N(c2ccc3c(c2)OCCO3)C1)C(=O)NC1CCCC1 (some centres not stated)
FALSE

Kindly provide the recorded test outcome for the following compound: CCc1nnc(NC(=O)C2CC(=O)N(c3ccc4c(c3)OCCO4)C2)s1 (configuration not stated)
TRUE

So what was the verdict on `CCCOc1ccc(-c2cccc(NS(=O)(=O)c3ccccc3)c2)nn1` in this test?
FALSE

Identify the outcome logged in this assay for the compound shown: `COc1ccc(C(=O)NC(=O)CSc2nnc(-c3ccco3)n2-c2ccccc2)cc1`
TRUE

Record lookup: outcome of this test for Cc1ccccc1N1CC(C(=O)Nc2nnc(SCCC3OCCO3)s2)CC1=O (configuration not stated) ?
TRUE
